mass density overview
details: 323.15 K; 5000 kPa; Liquid; Vibrating tube method
Property measured: mass density (kg/m3)

1. CCCC[n+]1ccccc1.O=S(=O)([O-])C(F)(F)F [1-butylpyridinium trifluoromethanesulfonate] ... 1298.89
2. CCCCCCCC[n+]1cccc(C)c1.F[B-](F)(F)F [N-octyl-3-methylpyridinium tetrafluoroborate] ... 1082.03
3. CCCC[n+]1cccc(C)c1.N#C[N-]C#N [1-butyl-3-methylpyridinium dicyanamide] ... 1036.41
4. CCCC[n+]1ccccc1.F[B-](F)(F)F [1-butylpyridinium tetrafluoroborate] ... 1199.29
5. CCC[n+]1ccccc1Oc1ccc(Cl)c[n+]1CCOS(=O)(=O)[O-].F[B-](F)(F)F ... 1237.63

* * *

conditions: 323.15 K; 55000 kPa; Liquid; Vibrating tube method
Property measured: mass density (kg/m3)

1. CCCC[n+]1cccc(C)c1.N#C[N-]C#N [1-butyl-3-methylpyridinium dicyanamide] ... 1054.85
2. CCCCCCCC[n+]1cccc(C)c1.F[B-](F)(F)F [N-octyl-3-methylpyridinium tetrafluoroborate] ... 1105.69
3. CCC[n+]1ccccc1Oc1ccc(Cl)c[n+]1CCOS(=O)(=O)[O-].F[B-](F)(F)F ... 1258.52
4. CCCC[n+]1ccccc1.O=S(=O)([O-])C(F)(F)F [1-butylpyridinium trifluoromethanesulfonate] ... 1325.68
5. CCCC[n+]1ccccc1.F[B-](F)(F)F [1-butylpyridinium tetrafluoroborate] ... 1220.89

* * *

conditions: 313.15 K; 100 kPa; Liquid; Vibrating tube method
Property measured: mass density (kg/m3)

1) CCCC[n+]1ccccc1.F[B-](F)(F)F [1-butylpyridinium tetrafluoroborate] ... 1203.87
2) CCCC[n+]1cccc(C)c1.N#C[N-]C#N [1-butyl-3-methylpyridinium dicyanamide] ... 1040.26
3) CCCC[n+]1ccccc1.O=S(=O)([O-])C(F)(F)F [1-butylpyridinium trifluoromethanesulfonate] ... 1303.91
4) CCCCCCCC[n+]1cccc(C)c1.F[B-](F)(F)F [N-octyl-3-methylpyridinium tetrafluoroborate] ... 1085.88
5) CCC[n+]1ccccc1Oc1ccc(Cl)c[n+]1CCOS(=O)(=O)[O-].F[B-](F)(F)F ... 1242.44

* * *

conditions: 283.15 K; 100 kPa; Liquid; Vibrating tube method
mass density overview
Property measured: mass density (kg/m3)

1) CCCC[n+]1ccccc1.F[B-](F)(F)F [1-butylpyridinium tetrafluoroborate] ... 1225.36
2) CCC[n+]1ccccc1Oc1ccc(Cl)c[n+]1CCOS(=O)(=O)[O-].F[B-](F)(F)F ... 1264.92
3) CCCCCCCC[n+]1cccc(C)c1.F[B-](F)(F)F [N-octyl-3-methylpyridinium tetrafluoroborate] ... 1106.25
4) CCCC[n+]1cccc(C)c1.N#C[N-]C#N [1-butyl-3-methylpyridinium dicyanamide] ... 1058.8

* * *

conditions: 333.15 K; 5000 kPa; Liquid; Vibrating tube method
Property measured: mass density (kg/m3)

1. CCC[n+]1ccccc1Oc1ccc(Cl)c[n+]1CCOS(=O)(=O)[O-].F[B-](F)(F)F ... 1230.56
2. CCCC[n+]1ccccc1.F[B-](F)(F)F [1-butylpyridinium tetrafluoroborate] ... 1192.59
3. CCCC[n+]1cccc(C)c1.N#C[N-]C#N [1-butyl-3-methylpyridinium dicyanamide] ... 1030.21
4. CCCC[n+]1ccccc1.O=S(=O)([O-])C(F)(F)F [1-butylpyridinium trifluoromethanesulfonate] ... 1291.41
5. CCCCCCCC[n+]1cccc(C)c1.F[B-](F)(F)F [N-octyl-3-methylpyridinium tetrafluoroborate] ... 1075.39

* * *

details: 303.15 K; 45000 kPa; Liquid; Vibrating tube method
Property measured: mass density (kg/m3)

1) CCCCCCCC[n+]1cccc(C)c1.F[B-](F)(F)F [N-octyl-3-methylpyridinium tetrafluoroborate] ... 1113.68
2) CCCC[n+]1cccc(C)c1.N#C[N-]C#N [1-butyl-3-methylpyridinium dicyanamide] ... 1062.75
3) CCCC[n+]1ccccc1.O=S(=O)([O-])C(F)(F)F [1-butylpyridinium trifluoromethanesulfonate] ... 1335.28
4) CCCC[n+]1ccccc1.F[B-](F)(F)F [1-butylpyridinium tetrafluoroborate] ... 1229.97
5) CCC[n+]1ccccc1Oc1ccc(Cl)c[n+]1CCOS(=O)(=O)[O-].F[B-](F)(F)F ... 1268.13

* * *

conditions: 293.15 K; 15000 kPa; Liquid; Vibrating tube method
Property measured: mass density (kg/m3)

1) CCCCCCCC[n+]1cccc(C)c1.F[B-](F)(F)F [N-octyl-3-methylpyridinium tetrafluoroborate] ... 1106.86
2) CCCC[n+]1ccccc1.F[B-](F)(F)F [1-butylpyridinium tetrafluoroborate] ... 1224.51
3) CCC[n+]1ccccc1Oc1ccc(Cl)c[n+]1CCOS(=O)(=O)[O-].F[B-](F)(F)F ... 1263.43
4) CCCC[n+]1cccc(C)c1.N#C[N-]C#N [1-butyl-3-methylpyridinium dicyanamide] ... 1058.23

* * *

mass density overview
settings: 313.15 K; 50000 kPa; Liquid; Vibrating tube method
Property measured: mass density (kg/m3)

1. CCCC[n+]1ccccc1.F[B-](F)(F)F [1-butylpyridinium tetrafluoroborate] ... 1225.54
2. CCCC[n+]1ccccc1.O=S(=O)([O-])C(F)(F)F [1-butylpyridinium trifluoromethanesulfonate] ... 1330.42
3. CCCCCCCC[n+]1cccc(C)c1.F[B-](F)(F)F [N-octyl-3-methylpyridinium tetrafluoroborate] ... 1109.66
4. CCCC[n+]1cccc(C)c1.N#C[N-]C#N [1-butyl-3-methylpyridinium dicyanamide] ... 1058.82
5. CCC[n+]1ccccc1Oc1ccc(Cl)c[n+]1CCOS(=O)(=O)[O-].F[B-](F)(F)F ... 1263.42

* * *

conditions: 308.15 K; 55000 kPa; Liquid; Vibrating tube method
Numbers after ± are expanded uncertainties.
Property measured: mass density

1) CCC[n+]1ccccc1Oc1ccc(Cl)c[n+]1CCOS(=O)(=O)[O-].F[B-](F)(F)F ... 1268.36 ± 1 kg/m3
2) CCCC[n+]1ccccc1.O=S(=O)([O-])C(F)(F)F [1-butylpyridinium trifluoromethanesulfonate] ... 1336.34 ± 1.2 kg/m3
3) CCCCCCCC[n+]1cccc(C)c1.F[B-](F)(F)F [N-octyl-3-methylpyridinium tetrafluoroborate] ... 1114.63 ± 1.3 kg/m3
4) CCCC[n+]1cccc(C)c1.N#C[N-]C#N [1-butyl-3-methylpyridinium dicyanamide] ... 1063.27 ± 1.1 kg/m3
5) CCCC[n+]1ccccc1.F[B-](F)(F)F [1-butylpyridinium tetrafluoroborate] ... 1230.34 ± 0.91 kg/m3

* * *

settings: 328.15 K; 45000 kPa; Liquid; Vibrating tube method
Property measured: mass density (kg/m3)

1) CCCC[n+]1ccccc1.O=S(=O)([O-])C(F)(F)F [1-butylpyridinium trifluoromethanesulfonate] ... 1317.18
2) CCCCCCCC[n+]1cccc(C)c1.F[B-](F)(F)F [N-octyl-3-methylpyridinium tetrafluoroborate] ... 1098.38
3) CCC[n+]1ccccc1Oc1ccc(Cl)c[n+]1CCOS(=O)(=O)[O-].F[B-](F)(F)F ... 1251.23
4) CCCC[n+]1cccc(C)c1.N#C[N-]C#N [1-butyl-3-methylpyridinium dicyanamide] ... 1048.66
5) CCCC[n+]1ccccc1.F[B-](F)(F)F [1-butylpyridinium tetrafluoroborate] ... 1213.66

* * *

mass density overview
settings: 323.15 K; 20000 kPa; Liquid; Vibrating tube method
Property measured: mass density (kg/m3)

1. CCCCCCCC[n+]1cccc(C)c1.F[B-](F)(F)F [N-octyl-3-methylpyridinium tetrafluoroborate] ... 1089.69
2. CCCC[n+]1cccc(C)c1.N#C[N-]C#N [1-butyl-3-methylpyridinium dicyanamide] ... 1042.21
3. CCC[n+]1ccccc1Oc1ccc(Cl)c[n+]1CCOS(=O)(=O)[O-].F[B-](F)(F)F ... 1244.44
4. CCCC[n+]1ccccc1.F[B-](F)(F)F [1-butylpyridinium tetrafluoroborate] ... 1206.47
5. CCCC[n+]1ccccc1.O=S(=O)([O-])C(F)(F)F [1-butylpyridinium trifluoromethanesulfonate] ... 1307.88

* * *

mass density overview
details: 313.15 K; 20000 kPa; Liquid; Vibrating tube method
Property measured: mass density (kg/m3)

1. CCCC[n+]1ccccc1.F[B-](F)(F)F [1-butylpyridinium tetrafluoroborate] ... 1213.11
2. CCCCCCCC[n+]1cccc(C)c1.F[B-](F)(F)F [N-octyl-3-methylpyridinium tetrafluoroborate] ... 1096.09
3. CCCC[n+]1cccc(C)c1.N#C[N-]C#N [1-butyl-3-methylpyridinium dicyanamide] ... 1048.15
4. CCCC[n+]1ccccc1.O=S(=O)([O-])C(F)(F)F [1-butylpyridinium trifluoromethanesulfonate] ... 1315.17
5. CCC[n+]1ccccc1Oc1ccc(Cl)c[n+]1CCOS(=O)(=O)[O-].F[B-](F)(F)F ... 1251.35
